Molecular target: BACE1 in primary mouse cortical neurons (mouse, UniProt P56818 46-501)
Sequence (P56818 46-501): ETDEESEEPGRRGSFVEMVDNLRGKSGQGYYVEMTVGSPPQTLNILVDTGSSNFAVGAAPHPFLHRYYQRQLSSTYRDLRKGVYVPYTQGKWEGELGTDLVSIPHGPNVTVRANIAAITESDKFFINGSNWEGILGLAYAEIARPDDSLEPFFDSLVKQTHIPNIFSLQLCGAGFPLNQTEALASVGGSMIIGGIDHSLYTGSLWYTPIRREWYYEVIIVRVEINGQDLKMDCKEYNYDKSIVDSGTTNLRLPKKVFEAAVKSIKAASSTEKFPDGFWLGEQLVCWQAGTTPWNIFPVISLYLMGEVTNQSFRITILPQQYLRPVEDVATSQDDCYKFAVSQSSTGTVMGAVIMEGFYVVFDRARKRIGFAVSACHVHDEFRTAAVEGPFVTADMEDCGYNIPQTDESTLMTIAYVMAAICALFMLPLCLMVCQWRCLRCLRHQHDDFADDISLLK
Assay: cell-based or functional assay
Observation Type: maximal % inhibition of Abeta x-40 (%)
Numbers only, in %.

binder="6285 (antibody, V domains shown, anti-BACE1 IgG) VH: QLQLQESGPGLVKPSETLSLTCTVSGGSTSSSSYYWGWIRQPPGKGLEWIGSIYRSGSTYYNPSLKSRVTISVDTSKNQFSLKLSSVTAADTAVYYCARVGHGISYFDLWGRGTLVTVSS VL: EIVLTQSPATLSLSPGERATLSCRASQSVSSYLAWYQQKPGQAPRLLIYDASSRATGIPARFSGSGSGTDFTLTISSLEPEDFAVYYCQQSLTWPPRTFGGGTKVEIK" measured_result=57

# next binder below
Ask | Name the recorded maximal % inhibition of Abeta x-40 of the binder listed here: 6274 (antibody, V domains shown, anti-BACE1 IgG) VH: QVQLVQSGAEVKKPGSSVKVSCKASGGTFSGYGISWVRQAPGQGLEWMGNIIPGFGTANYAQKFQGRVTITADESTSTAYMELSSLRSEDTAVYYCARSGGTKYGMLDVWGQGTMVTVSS VL: EIVMTQSPATLSVSPGERATLSCRASQSVSSHLAWYQQKPGQAPRLLIYGASTRATGIPARFSGSGSGTEFTLTISSLQSEDFAVYYCQQLILWPPRTFGGGTKVEIK
Reply | 85
